Entry source: patent US7531573B2

test: clinical; type: in vivo; conditions: human, in vivo, 500 mg; Subject B, CLT day 6; read-out: Levels Plasma
assayReadout: concentration at 6 day of CLT dosing (µM)
API: value field is a number in µM; no unit string.

Prompt: Provide only the value of recorded concentration at 6 day of CLT dosing for "Clc1ccccc1C(c1ccccc1)c1ccccc1"
Response: 2.5

###

target: Gardos channel of erythrocytes (Homo sapiens, UniProt O15554); assay: cell-based; details: erythrocytes; read-out: Gardos Channel IC50
Sequence (O15554 whole entry): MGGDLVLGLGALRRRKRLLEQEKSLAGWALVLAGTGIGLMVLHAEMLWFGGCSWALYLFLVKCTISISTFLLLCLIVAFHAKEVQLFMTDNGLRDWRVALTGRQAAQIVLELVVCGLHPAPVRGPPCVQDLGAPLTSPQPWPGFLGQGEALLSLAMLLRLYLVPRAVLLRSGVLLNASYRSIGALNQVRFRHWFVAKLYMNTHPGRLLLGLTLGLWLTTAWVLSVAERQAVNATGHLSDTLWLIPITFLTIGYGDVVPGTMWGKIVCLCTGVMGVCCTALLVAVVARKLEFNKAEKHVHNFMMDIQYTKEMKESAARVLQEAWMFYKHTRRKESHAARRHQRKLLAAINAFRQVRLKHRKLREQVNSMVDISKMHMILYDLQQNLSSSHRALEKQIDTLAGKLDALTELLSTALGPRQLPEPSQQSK
pIC50: −log10 of the molar value.
Classify by measured pIC50: 1 if it is equal to or exceeds 6, -1 if it is smaller.

- COC(=O)c1ccccc1C(c1ccccc1)c1ccccc1 [Compound 45]: 1
- O=C(O)C(c1ccccc1)(c1ccccc1)c1ccccc1Cl [Compound 80]: 1
- c1ccc(N(c2ccccc2)c2ccccc2)cc1 [Compound 8]: -1

Prompt: Say whether NC(=O)C(c1ccccc1)(c1ccccc1)c1ccccc1Cl [Compound 75, (2-chlorophenyl)-diphenylacetamide] shows pIC50 of 6 or more.
Response: 1

Prompt: Exam item: decide whether the reported pIC50 for CC(=O)C(c1ccccc1)(c1ccccc1)c1ccccc1 [Compound 37] is at least 6.
Response: 1

Prompt: Quick check, pIC50 >= 6? O=C(CBr)C(c1ccccc1)(c1ccccc1)c1ccccc1 [Compound 69]
Response: 1

###

experiment: clinical; assay type: in vivo; conditions: human, plasma, oral, 500 mg; Subject A, Wash-out day 6; read-out: Levels Plasma
assayReadout: concentration at 6 day (wash-out)

Prompt: Please list concentration at 6 day (wash-out) recorded for the compound OC(c1ccccc1)(c1ccccc1)c1ccccc1Cl [Compound 6, 2-chlorophenyl-diphenylmethanol]
Response: < 100 nM

###

assay: clinical; type: in vivo; details: human, plasma, oral, 500 mg; Subject A, CLT day 6; read-out: Levels Plasma
assayReadout: concentration at 6 day of CLT dosing (nM)
The figure you give is taken to be in nM; do not add the unit.

Prompt: Provide measured concentration at 6 day of CLT dosing value, entry: OC(c1ccccc1)(c1ccccc1)c1ccccc1Cl [Compound 6, 2-chlorophenyl-diphenylmethanol]
Response: 1100

###

test: clinical; type: in vivo; settings: human, in vivo, 500 mg; Subject B, Wash-out day 8; read-out: Levels Plasma
assayReadout: concentration at 8 day (wash-out)

Prompt: Report measured concentration at 8 day (wash-out); entry is Clc1ccccc1C(c1ccccc1)c1ccccc1 [Compound 17, 2-chlorophenyl-diphenylmethane]
Response: < 100 nM

###

target: Gardos channel of erythrocytes (Homo sapiens, UniProt O15554); assay: cell-based; conditions: read-out: Gardos Channel % Inhibition
assayReadout: inhibition at 10 µM (%)
A number alone suffices; assume %.

The following compounds have reported results that may help.
• Fc1ccccc1C(c1ccccc1)c1ccccc1 = 100
• O=C(O)CC(c1ccc(Cl)cc1)(c1ccc(Cl)cc1)c1ccc(Cl)cc1 = 97
• OC(c1ccccc1)(c1ccccc1)c1ccccc1Cl = 98

Prompt: Return inhibition at 10 µM (reported value) for this compound: "O=C(O)CNC(c1ccccc1)(c1ccccc1)c1ccccc1"
Response: 34.4

Prompt: Report measured inhibition at 10 µM; entry is "c1ccc(C(c2ccccc2)c2ccncc2)cc1"
Response: 91

Prompt: Report inhibition at 10 µM, nothing else, for this compound: "NC(c1ccccc1)(c1ccccc1)c1ccccc1"
Response: 86

Prompt: Hello, please tell me recorded inhibition at 10 µM for this one: "COC(c1ccccc1)(c1ccccc1)c1ccccc1"
Response: 100

Prompt: Read off the recorded inhibition at 10 µM for "O=CC(c1ccccc1)(c1ccccc1)c1ccccc1"
Response: 98

Prompt: Supply reported inhibition at 10 µM belonging to this compound: COc1ccc(C(c2ccccc2)c2ccccc2Cl)cc1 (stereo not drawn)
Response: 96.7

###

test: clinical; assay type: in vivo; conditions: human, in vivo, 500 mg; Subject B, Wash-out day 20; read-out: Levels Plasma
assayReadout: concentration at 20 day (wash-out) (nM)
Your answer is read as nM, so omit the unit and give the number.

Prompt: Identify concentration at 20 day (wash-out) associated with the compound "Clc1ccccc1C(c1ccccc1)c1ccccc1"
Response: 0

###

molecular target: Gardos channel of erythrocytes (Homo sapiens, UniProt O15554); assay: cell-based; conditions: erythrocytes; read-out: Gardos Channel IC50
As shown below, each of these compounds has a reported pIC50 value.
Remember the convention: pIC50 equals -log10 of concentration in molar.

* NCCC(c1ccccc1)(c1ccccc1)c1ccccc1 | 6.19
* NOC(c1ccccc1)(c1ccccc1)c1ccccc1 | 6.03
* CCOC(c1ccccc1)(c1ccccc1)c1ccccc1 | 7.12
* NCCC(c1ccc(Cl)cc1)(c1ccc(Cl)cc1)c1ccc(Cl)cc1 | 5.68
* O=C1CC[C@@H](COC(c2ccccc2)(c2ccccc2)c2ccccc2)N1 | 6.67

Prompt: Return the recorded pIC50 value; entry: "N#CC(c1ccccc1)(c1ccccc1)c1ccc([N+](=O)[O-])cc1"
Response: 6.59

Prompt: Look up pIC50 of "O=C(O)CC(c1ccccc1)(c1ccccc1)c1ccccc1Cl" and report it.
Response: 5.51

Prompt: Name the recorded pIC50 of the item "c1ccc(C(c2ccccc2)(c2ccccc2)[n+]2ccccc2)cc1" in your answer.
Response: 6.39

Prompt: Provide only the value of recorded pIC50 for "CON(C)C(=O)CC(c1ccccc1)(c1ccccc1)c1ccccc1"
Response: 6.56

###

target: UniProt:O15554; assay: cell-based
assayReadout: pIC50
Reminder that pIC50 means the negative base-10 logarithm of the concentration expressed in mol/L.

Example compounds with recorded pIC50:
* ClC(c1ccccc1)(c1ccccc1)c1ccccc1 [Compound 2] | 6.34
* C#C[Si](c1ccccc1)(c1ccccc1)c1ccccc1 [Compound 44] | 6.41
* OC(c1ccccc1)(c1ccccc1)c1ccccc1F [Compound 20] | 6.10

Prompt: State, in one line, measured pIC50 of NC(c1ccccc1)(c1ccccc1)c1ccccc1 [Compound 5]
Response: 5.78

Prompt: Specify pIC50 for Oc1ccc(C(O)(c2ccccc2)c2ccccc2Cl)cc1 (stereo not shown) [Compound 84] and stop.
Response: 5.89

Prompt: Give pIC50 for the following compound: N#CC(c1ccccc1)(c1ccccc1)c1ccccc1F [Compound 32, (2-fluorophenyl)-diphenylacetonitrile]
Response: 7.17

Prompt: Hello, please tell me recorded pIC50 for this one: COc1ccc(C(O)(c2ccccc2)c2ccc(OC)cc2)cc1 [Compound 58]
Response: 6.61

Prompt: Give the measured pIC50 for OC(c1ccccc1)(c1ccccc1)c1ccccc1 [Compound 1]
Response: 6.12

Prompt: Entry OC(c1ccccc1)(c1ccccc1)c1cccnc1 [Compound 63] needs its pIC50 filled in; supply it.
Response: 5.99

Prompt: Write down pIC50 measured for item OC(c1ccccc1)(c1ccccc1)c1ccc(-c2ccccc2)cc1 [Compound 21]
Response: 6.14

###

assay: clinical; assay type: in vivo; details: human, in vivo, 500 mg; Subject A, Wash-out day 20; read-out: Levels Plasma
assayReadout: concentration at 20 day (wash-out) (nM)
The reply should be a number in nM, with the unit left off.

Prompt: Return concentration at 20 day (wash-out) for the following molecule: "Clc1ccccc1C(c1ccccc1)c1ccccc1"
Response: 0

###

experiment: clinical; type: in vivo; conditions: human, plasma, oral, 500 mg; Subject B, Wash-out day 13; read-out: Levels Plasma
assayReadout: concentration at 13 day (wash-out) (nM)
Note: unit nM is implicit; provide only the numeric part.

Prompt: Please report the measured concentration at 13 day (wash-out) for "OC(c1ccccc1)(c1ccccc1)c1ccccc1Cl"
Response: 0

###

molecular target: Gardos channel of erythrocytes (Homo sapiens); assay: cell-based; details: read-out: Gardos Channel % Inhibition
assayReadout: inhibition at 10 µM (%)
Express the result in % but write the number alone.

Here are 10 molecules together with their reported answers.
• NC(=O)C(c1ccccc1)(c1ccccc1)c1ccccc1Cl [Compound 75, (2-chlorophenyl)-diphenylacetamide] = 98
• BrC(c1ccccc1)(c1ccccc1)c1ccccc1 = 99
• OC(c1ccccc1)(c1ccccc1)c1cccnc1 = 69
• OC(c1ccccc1)(c1ccccc1)c1ccc(C(F)(F)F)cc1 = 97.5
• O=CCC(c1ccc(Cl)cc1)(c1ccc(Cl)cc1)c1ccc(Cl)cc1 = 98
• NC(=O)CC(c1ccccc1)(c1ccccc1)c1ccccc1 = 98
• CCOC(=O)C(c1ccccc1)(c1ccccc1)c1ccccc1 = 100
• OC(c1ccccc1)(c1ccccc1)c1ccc(-c2ccccc2)cc1 = 97.3
• O=CCC(c1ccccc1)(c1ccccc1)c1ccccc1Cl = 96
• COc1ccc(C(O)(c2ccccc2)c2ccccc2)cc1 = 98

Prompt: For the molecule COc1ccc(C(O)(c2ccccc2)c2ccccc2Cl)cc1 (stereo not drawn) , report inhibition at 10 µM.
Response: 100

Prompt: Provide inhibition at 10 µM value for the following molecule: "N#CC(c1ccccc1)(c1ccccc1)c1ccccc1"
Response: 72.4

Prompt: Entry "Nc1ccc(C(O)(c2ccc(N)cc2)c2ccc(N)cc2)cc1" needs its inhibition at 10 µM filled in; supply it.
Response: 17.4

###

assay: clinical; assay type: in vivo; conditions: human, in vivo, 500 mg; Subject A, Wash-out day 6; read-out: Levels Plasma
assayReadout: concentration at 6 day (wash-out)

Prompt: Quick one: give measured concentration at 6 day (wash-out) for "Clc1ccccc1C(c1ccccc1)c1ccccc1"
Response: < 100 nM
